So I've got a bunch of compounds here, and I need their viability, T/C values.
# Tested on: 855422-203-R-J1-PDC complex spheroids, viability
# test: Anticancer human tumor 855422-203-R-J1-PDC patient-derived bladder carcinoma cell line growth inhibition [CLK]
# measurementSetup: second compound 0.1 µM; first compound 10 µM; stronger effect = lower value
// note: answer is a bare numeric in %

Summary for this compound, COc1cccc2c1C(=O)c1c(O)c3c(c(O)c1C2=O)CC(O)(C(=O)CO)CC3OC1CC(N)C(O)C(C)O1 (centres undefined) + CN1CCN(c2cc(C(=O)Nc3cc4cc(-c5cnn(C)c5)ccc4cn3)ccn2)CC1 : viability, T/C is 0.34

Summary for this compound, CC1COCCN1c1cc(C2(S(C)(=N)=O)CC2)nc(-c2ccnc3[nH]ccc23)n1 (centres undefined) + CN1CCN(c2cc(C(=O)Nc3cc4cc(-c5cnn(C)c5)ccc4cn3)ccn2)CC1 : viability, T/C is 12.2

Summary for this compound, CC(=O)O[C@H]1C(=O)[C@@]2(C)[C@H]([C@H](OC(=O)c3ccccc3)[C@]3(O)C[C@H](OC(=O)[C@H](O)[C@@H](NC(=O)c4ccccc4)c4ccccc4)C(C)=C1C3(C)C)[C@]1(OC(C)=O)CO[C@@H]1C[C@@H]2O + CN1CCN(c2cc(C(=O)Nc3cc4cc(-c5cnn(C)c5)ccc4cn3)ccn2)CC1 : viability, T/C is 8.37

Summary for this compound, CC1(C)CCC(CN2CCN(c3ccc(C(=O)NS(=O)(=O)c4ccc(NCC5CCOCC5)c([N+](=O)[O-])c4)c(Oc4cnc5[nH]ccc5c4)c3)CC2)=C(c2ccc(Cl)cc2)C1 + CN1CCN(c2cc(C(=O)Nc3cc4cc(-c5cnn(C)c5)ccc4cn3)ccn2)CC1 : viability, T/C is 1.08

###

# System: 855422-203-R-J1-PDC complex spheroids, viability
# test: Anticancer human tumor 855422-203-R-J1-PDC cell line growth inhibition [CLK];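 further: spheroids exposed to drugs for seven days before readout; 100% = DMSO vehicle control wells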
# measurementSetup: second compound 3.16 µM; first compound 0.0316 µM; stronger effect = lower value
# From the text: A high-throughput screen of multi-cell type tumor spheroids was designed to identify active combinations of […] and targeted small molecules. Complex spheroids include a stromal component modeled by human endothelial cells (HUVEC) and fibroblasts modeled by human mesenchymal stem cells (MSCs). […] Compounds. […] If the clinical Cmax for an agent had not been determined, the highest concentration tested was 10 microM. […]
propertyName: viability, T/C (%)
// note: answer is a bare numeric in %

Form: item C=C(F)C(=O)N1CCN(c2nc(OCC3CCCN3C)nc3c2CCN(c2cccc4cccc(Cl)c24)C3)CC1CC#N (stereo not given) + CNC(=O)c1ccc(Nc2nc(OC3CCCC3)c3c(-c4ccc5nc(C)oc5c4)c[nH]c3n2)c(OC)c1 ; test system 855422-203-R-J1-PDC complex spheroids, viability; viability, T/C: 18.5

Form: item Nc1ccccc1NC(=O)c1ccc(CNC(=O)OCc2cccnc2)cc1 + CNC(=O)c1ccc(Nc2nc(OC3CCCC3)c3c(-c4ccc5nc(C)oc5c4)c[nH]c3n2)c(OC)c1 ; test system 855422-203-R-J1-PDC complex spheroids, viability; viability, T/C: 17.5

Form: item COc1cccc2c1C(=O)c1c(O)c3c(c(O)c1C2=O)CC(O)(C(=O)CO)CC3OC1CC(N)C(O)C(C)O1 (stereo not given) + CNC(=O)c1ccc(Nc2nc(OC3CCCC3)c3c(-c4ccc5nc(C)oc5c4)c[nH]c3n2)c(OC)c1 ; test system 855422-203-R-J1-PDC complex spheroids, viability; viability, T/C: 9.03

Form: item Nc1ccccc1NC(=O)c1ccc(CNC(=O)OCc2cccnc2)cc1 + CN1CCN(c2cc(C(=O)Nc3cc4cc(-c5cnn(C)c5)ccc4cn3)ccn2)CC1 ; test system 855422-203-R-J1-PDC complex spheroids, viability; viability, T/C: 0.53

Form: item CC1(C)CCC(CN2CCN(c3ccc(C(=O)NS(=O)(=O)c4ccc(NCC5CCOCC5)c([N+](=O)[O-])c4)c(Oc4cnc5[nH]ccc5c4)c3)CC2)=C(c2ccc(Cl)cc2)C1 + CNC(=O)c1ccc(Nc2nc(OC3CCCC3)c3c(-c4ccc5nc(C)oc5c4)c[nH]c3n2)c(OC)c1 ; test system 855422-203-R-J1-PDC complex spheroids, viability; viability, T/C: 22.6

###

# System: 855422-203-R-J1-PDC complex spheroids, viability
# test: Anticancer human tumor 855422-203-R-J1-PDC cell line growth inhibition [CLK];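 further: spheroids exposed to drugs for seven days before readout; 100% = DMSO vehicle control wells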
# measurementSetup: second compound 0.316 µM; first compound 3.16 µM; stronger effect = lower value
So I've got a bunch of compounds here, and I need their viability, T/C values.
// note: answer is a bare numeric in %

Form: item COc1cccc2c1C(=O)c1c(O)c3c(c(O)c1C2=O)CC(O)(C(=O)CO)CC3OC1CC(N)C(O)C(C)O1 (configuration not stated) + CNC(=O)c1ccc(Nc2nc(OC3CCCC3)c3c(-c4ccc5nc(C)oc5c4)c[nH]c3n2)c(OC)c1 ; test system 855422-203-R-J1-PDC complex spheroids, viability; viability, T/C: 0.45

Form: item CC1(C)CCC(CN2CCN(c3ccc(C(=O)NS(=O)(=O)c4ccc(NCC5CCOCC5)c([N+](=O)[O-])c4)c(Oc4cnc5[nH]ccc5c4)c3)CC2)=C(c2ccc(Cl)cc2)C1 + CN1CCN(c2cc(C(=O)Nc3cc4cc(-c5cnn(C)c5)ccc4cn3)ccn2)CC1 ; test system 855422-203-R-J1-PDC complex spheroids, viability; viability, T/C: 10.3

###

So I've got a bunch of compounds here, and I need their viability, T/C values.
# Tested on: 855422-203-R-J1-PDC complex spheroids, viability
# test: Anticancer human tumor 855422-203-R-J1-PDC cell line growth inhibition [CLK];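 further: spheroids exposed to drugs for seven days before readout; 100% = DMSO vehicle control wells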
# measurementSetup: second compound 0.1 µM; first compound 3.16 µM; stronger effect = lower value
# Excerpt: A high-throughput screen of multi-cell type tumor spheroids was designed to identify active combinations of […] and targeted small molecules. Complex spheroids include a stromal component modeled by human endothelial cells (HUVEC) and fibroblasts modeled by human mesenchymal stem cells (MSCs). […] Compounds. […] If the clinical Cmax for an agent had not been determined, the highest concentration tested was 10 microM. […]
// note: answer is a bare numeric in %

Summary for this compound, COC1C=CCC(C)C(C)S(=O)(=O)NC(=O)c2ccc3c(c2)N(CC2CCC21)CC1(CCCc2cc(Cl)ccc21)CO3 (centres undefined) + CNC(=O)c1ccc(Nc2nc(OC3CCCC3)c3c(-c4ccc5nc(C)oc5c4)c[nH]c3n2)c(OC)c1 : viability, T/C is 105

Summary for this compound, CC1(C)CCC(CN2CCN(c3ccc(C(=O)NS(=O)(=O)c4ccc(NCC5CCOCC5)c([N+](=O)[O-])c4)c(Oc4cnc5[nH]ccc5c4)c3)CC2)=C(c2ccc(Cl)cc2)C1 + CNC(=O)c1ccc(Nc2nc(OC3CCCC3)c3c(-c4ccc5nc(C)oc5c4)c[nH]c3n2)c(OC)c1 : viability, T/C is 69.2

Summary for this compound, COc1cccc2c1C(=O)c1c(O)c3c(c(O)c1C2=O)CC(O)(C(=O)CO)CC3OC1CC(N)C(O)C(C)O1 (centres undefined) + CNC(=O)c1ccc(Nc2nc(OC3CCCC3)c3c(-c4ccc5nc(C)oc5c4)c[nH]c3n2)c(OC)c1 : viability, T/C is 0.4

Summary for this compound, COC1C=CCC(C)C(C)S(=O)(=O)NC(=O)c2ccc3c(c2)N(CC2CCC21)CC1(CCCc2cc(Cl)ccc21)CO3 (centres undefined) + CN1CCN(c2cc(C(=O)Nc3cc4cc(-c5cnn(C)c5)ccc4cn3)ccn2)CC1 : viability, T/C is 74.4

###

# System: 855422-203-R-J1-PDC complex spheroids, viability
# test: Anticancer human tumor 855422-203-R-J1-PDC cell line growth inhibition [CLK]; active means viability on the fitted dose curve at most 10% of control; inactive means the rest;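 further: spheroids exposed to drugs for seven days before readout; 100% = DMSO vehicle control wells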
# measurementSetup: second compound 0.1 µM; first compound 3.16 µM
Allowed answers: Yes = active, No = inactive

Exercise: Check the results log: what was the call for C=C(F)C(=O)N1CCN(c2nc(OCC3CCCN3C)nc3c2CCN(c2cccc4cccc(Cl)c24)C3)CC1CC#N (stereo not given) + CNC(=O)c1ccc(Nc2nc(OC3CCCC3)c3c(-c4ccc5nc(C)oc5c4)c[nH]c3n2)c(OC)c1 ?
Key: No

Exercise: Check the results log: what was the call for CC(CO)NC(=O)c1cc(-c2ccc(Cl)cc2)nn(-c2cnn(C)c2)c1=O (stereo not given) + CN1CCN(c2cc(C(=O)Nc3cc4cc(-c5cnn(C)c5)ccc4cn3)ccn2)CC1 ?
Key: No

Exercise: Check the results log: what was the call for CC(CO)NC(=O)c1cc(-c2ccc(Cl)cc2)nn(-c2cnn(C)c2)c1=O (stereo not given) + CNC(=O)c1ccc(Nc2nc(OC3CCCC3)c3c(-c4ccc5nc(C)oc5c4)c[nH]c3n2)c(OC)c1 ?
Key: No

Exercise: Check the results log: what was the call for CCCS(=O)(=O)Nc1ccc(F)c(C(=O)c2c[nH]c3ncc(-c4ccc(Cl)cc4)cc23)c1F + CNC(=O)c1ccc(Nc2nc(OC3CCCC3)c3c(-c4ccc5nc(C)oc5c4)c[nH]c3n2)c(OC)c1 ?
Key: No

Exercise: Check the results log: what was the call for CC(=O)O[C@H]1C(=O)[C@@]2(C)[C@H]([C@H](OC(=O)c3ccccc3)[C@]3(O)C[C@H](OC(=O)[C@H](O)[C@@H](NC(=O)c4ccccc4)c4ccccc4)C(C)=C1C3(C)C)[C@]1(OC(C)=O)CO[C@@H]1C[C@@H]2O + CN1CCN(c2cc(C(=O)Nc3cc4cc(-c5cnn(C)c5)ccc4cn3)ccn2)CC1 ?
Key: Yes
